Recorded IC50 by entry
- target_of_assay: T1, CXCR4 receptor (human, UniProt P61073 1-352)
- T1 construct: whole, on cells; Endogenous receptor on human cells
- assay_name: displacement of 125I-CXCL12 from Jurkat cells, filter binding
Numbered stars: 1 amine (or outer) side, 2 acyl side, 3 side chain; on linkers, the order of the positions; unused ones are H or OH. Bridge positions count the residues as written; N and C are the ends. Square brackets hold non-standard residues; d marks the D form. Ends that are not written are not given here. * marks the point of attachment. guanyl = guanyl, N-terminal group, N=C(N)*; 2Nal = N[C@@H](Cc1ccc2ccccc2c1)C(=O)O; Glutaryl = O=C(CCCC(=O)[*:2])[*:1]; Cit = NC(=O)NCCC[C@H](N)C(=O)O; Ahx = NCCCCCC(=O)O
Give the quantity in nM, number only.

*Q* Item RRXCYXKXPYRXCR (X at 3 = Nal (L-3-(2-naphthyl)alanine); X at 6 and 12 = Cit (L-citrulline); X at 8 = D-Cit (D-citrulline); disulfide Cys4-Cys13; free N-terminus (H-); C-terminal amide (-NH2), Tested as acetate salt) [TC14012] has what recorded IC50?
*A* 2.7

*Q* Requested read-out: IC50. Entry: guanyl-RR[2Nal]CY[Cit]K[dE]PYR[Cit]CR-NH2 (disulfide 4-13; also: acetate salt) [TF2]
*A* 3.3

*Q* Fill blank: measured IC50 of the binder tetramethylguanyl-RR[2Nal]CY[Cit]K[dE]PYR[Cit]CR-NH2 (disulfide 4-13; also: acetate salt) [TF3] is ____.
*A* 9.6

*Q* So what does the record say about IC50 for [Ahx]RR[2Nal]CYRK[dK]PYR[Cit]CR-OH (disulfide 5-14; also: acetate salt) [TF20] ?
*A* 3.5

*Q* State the recorded IC50 for this entry: Glutaryl-R[2Nal]CY[Cit]K[dE]PYR[Cit]CR-NH2 (disulfide 3-12; also: acetate salt) [TF11]
*A* 630

// provenance: patent US20060264378A1
